All figures here come from patent US10934298B2.

The entries below come with measured solubility values attached.
Assay: Compound solubility in water
Type: physicochemical
Settings: Table 3A

| MOLECULE | RESULT UNITS | solubility |
| --- | --- | --- |
| Cc1cc(-c2ccccn2)nc2c(C(=O)N[C@@H](C)C3CC3)cnn12 [III-24] | µg/mL | 8.1 |
| Cc1cc(-c2cccnc2)nc2c(C(=O)N[C@@H](C)C3CC3)cnn12 [III-26] | µg/mL | 26 |

----------
solubility overview
Assay: Compound solubility in water
Format: physicochemical

| COMPOUND | solubility, µg/mL |
| --- | --- |
| COc1cccc(-c2cc(C)n3ncc(C(=O)NC(C4CC4)C(F)(F)F)c3n2)n1 (stereo not drawn) [III-105] | 0.08 |
| Cc1cc(-c2ccc(Cl)nc2)nc2c(C(=O)N[C@@H](C3CC3)C(F)(F)F)cnn12 [III-118] | 0.4 |
| Cc1cc(-c2cccc(F)n2)nc2c(C(=O)NC(C3CC3)C(F)(F)F)cnn12 (stereo not drawn) [III-130] | 0.2 |
